- System: acetylcholine-induced abdominal constriction
- EXPERIMENT_SUMMARY: animal or person
- Assay type: in vivo, mice
- CONDITION_LABEL: Mus musculus, iv, 10 mg./kg. i.v.; read-out: Ach percent inhibition
Binary classification by inhibition in vivo at 10 mg/kg, with 50% as an inclusive lower bound for Met; all other cases are Not met.

Worked examples follow.
[[record]]
molecule = "CC(=O)Nc1ccc(C(=O)c2c(C)n(CCN3CCOCC3)c3ccccc23)cc1 [Example 5A]"
group = "Not met"

[[record]]
molecule = "Cc1c(C(=O)c2ccc(C#N)cc2)c2ccccc2n1CCN1CCOCC1 [Example 1AF]"
group = "Not met"

[[record]]
molecule = "CCc1ccc(C(=O)c2c(C)n(CCN3CCOCC3)c3ccccc23)cc1 [Example 1AC]"
group = "Met"

[[record]]
molecule = "Cc1c(C(=O)c2cc3ccccc3o2)c2ccccc2n1CCN1CCOCC1 [Example 1S]"
group = "Met"

[[record]]
molecule = "Cc1c(C(=O)c2ccc(OCc3ccccc3)cc2)c2ccccc2n1CCN1CCOCC1 [Example 1AG]"
group = "Not met"

[[record]]
molecule = "COc1ccc(C(=O)c2c(C)n(CCN3CCOCC3)c3ccccc23)cc1 [Example 1H]"
group = "Not met"

[[record]]
molecule = "COc1ccc(C(=O)c2c(C)n(CC(O)CN3CCCC3)c3ccccc23)cc1 (stereo not drawn) [Example 31H]"
group = "Met"

[[record]]
molecule = "Cc1c(C(=O)c2ccc(O)cc2)c2ccccc2n1CCN1CCOCC1.Cl [Example 6, hydrochloride]"
group = "Not met"


Exercise: Is inhibition in vivo at 10 mg/kg at least 50%? Consider Cc1c(C(=O)c2cccc3ccccc23)c2ccccc2n1CCN1CCN(C)CC1 [Example 3J]
Solution: Not met

Exercise: Say whether COc1ccc(C(=O)c2c(C)n(CCN3CCCC3)c3ccccc23)cc1 [Example 1K] shows inhibition in vivo at 10 mg/kg of 50% or more.
Solution: Not met
